MEASURED_ON: CRTH2 receptor (Homo sapiens)
Sequence (Q9Y5Y4 1-395): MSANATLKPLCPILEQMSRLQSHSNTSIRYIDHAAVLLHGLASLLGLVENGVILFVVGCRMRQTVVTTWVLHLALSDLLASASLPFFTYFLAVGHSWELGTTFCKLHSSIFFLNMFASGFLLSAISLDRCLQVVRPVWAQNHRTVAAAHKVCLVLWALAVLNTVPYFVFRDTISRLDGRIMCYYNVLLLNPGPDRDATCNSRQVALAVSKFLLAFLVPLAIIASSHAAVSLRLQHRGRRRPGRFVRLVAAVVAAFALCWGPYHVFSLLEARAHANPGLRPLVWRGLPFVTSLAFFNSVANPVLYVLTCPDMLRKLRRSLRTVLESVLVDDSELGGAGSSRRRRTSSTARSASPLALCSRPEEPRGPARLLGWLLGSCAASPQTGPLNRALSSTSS
ASSAY_COMMENT: PathHunter CHO-K1 CRTH2 β-arrestin antagonist assay
Assay type: cell-based
TEST_PARAMETERS: PathHunter CHO-K1 CRTH2 β-arrestin cells, PGD2 agonist at EC80
ENDPOINT: IC50

// query # input compound: `Cc1c(Cc2ccc3c(c2)C(F)(F)CCS3(=O)=O)c2cc(F)ccc2n1CC(=O)O` ; wanted: its IC50
// result < 100 nM

Data provenance is patent US11034681B2.
